Assayed System: T1, hIL-1 IR (Homo sapiens, UniProt Q14626)
T1 sequence (Q14626 23-422): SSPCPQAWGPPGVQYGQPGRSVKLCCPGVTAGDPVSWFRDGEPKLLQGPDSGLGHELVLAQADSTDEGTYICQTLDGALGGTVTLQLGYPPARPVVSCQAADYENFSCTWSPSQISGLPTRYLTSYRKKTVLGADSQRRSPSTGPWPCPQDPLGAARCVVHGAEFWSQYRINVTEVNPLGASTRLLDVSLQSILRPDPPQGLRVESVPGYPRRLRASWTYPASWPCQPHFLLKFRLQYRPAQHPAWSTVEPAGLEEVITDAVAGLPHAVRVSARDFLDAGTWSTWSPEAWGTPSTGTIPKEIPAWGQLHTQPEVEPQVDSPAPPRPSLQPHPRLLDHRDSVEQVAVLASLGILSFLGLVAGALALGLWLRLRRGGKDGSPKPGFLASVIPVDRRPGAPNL
Procedure Summary: Alternate biolayer interferometry assay (AHC biosensors) ranking mAbs 16-32 against mAb5
Assay type: binding
Run Conditions: dissociation 1200 s
Value Type: kd (s⁻¹)

[
  {
    "Molecule": "mAb29: anti-IL-11Rα antibody; VH SEQ ID NO: 249, VL SEQ ID NO: 250; heavy chain Kabat position 31 variant of mAb5 (antibody, V domains shown, mAb29 VH Chain; mAb29 VL Chain, anti-IL-11Rα antibody; heavy chain Kabat position 31 variant of mAb5) VH: EVQLLESGGGLVQPGGSLRLSCAASGFTFSSYSMTWVRQAPGKGLEWVSSIVPYGDLTQYADSVKGRFTISRDNSKNTLYLQMNSLRAEDTAVYYCAKGPGWGSFDLWGRGTLVTVSS VL: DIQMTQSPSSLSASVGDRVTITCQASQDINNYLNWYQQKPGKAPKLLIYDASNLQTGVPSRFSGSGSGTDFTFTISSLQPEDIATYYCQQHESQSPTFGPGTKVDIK",
    "Measurement Unit": "s⁻¹",
    "Quantitative Result": "1.8e-05"
  }
]
